- Test system: EKVX
- ASSAY_PROTOCOL: NCI tumour cell line growth inhibition, 48 h
Active and inactive are the calls of the source. No stated cut-off is given here; in the data, active = GI50 up to about 1.1 µM and inactive = higher.
Outcome codes: active, inactive

{"columns": ["COMPOUND", "LABEL"],
 "data": [
  ["N=C(N)SCc1ccc2c(c1)S(=O)(=O)c1ccccc1O2", "inactive"],
  ["CCOP(=O)(CN1CCNCCNCC1)OCC", "inactive"],
  ["COC1=C(OC)C(=O)C(Cc2c(C)nc3sc(C)cn23)=C(C)C1=O", "inactive"],
  ["O=[N+]([O-])C(/C=C(\\Cl)[N+](=O)[O-])=C1Nc2ccccc2N1", "inactive"],
  ["Cc1cc2c(c(C(N)=O)c1C)-c1cccc(Cl)c1C2=O", "inactive"],
  ["C[C@@H]1C(=O)CC2C(C)(C)CCC[C@]2(C)[C@@]12CC[C@]1(C=COC1)O2 (stereo partly specified)", "inactive"],
  ["Cc1cc(=O)oc2cc(OCCCOc3ccc4c(C)cc(=O)oc4c3)ccc12", "inactive"],
  ["COc1ccc(/N=N/c2ccc3oc(=O)c(C(=O)Nc4ccccc4)cc3c2)cc1", "inactive"],
  ["COC(=O)/C(=C/c1ccc(OC)cc1)C(C(=O)O)=C1CCCCC1", "inactive"],
  ["CCCCc1ccc(Nc2nc(Cl)c3ccn(C4CC(Oc5ccc(C)cc5)C(COc5ccc(C)cc5)O4)c3n2)cc1 (stereo unspecified)", "inactive"],
  ["COc1ccccc1-n1c(=O)n(C)c(=O)n1C(C)(C)C", "inactive"],
  ["O=c1c(NO)c([N+](=O)[O-])cnn1-c1ccccc1", "inactive"],
  ["CCNC(C)(C)C(SS)c1ccc(Br)cc1 (stereo unspecified)", "inactive"],
  ["Nc1ncn(C2C=C(CO)C(O)C2O)c(=O)n1 (stereo unspecified)", "inactive"],
  ["CO[C@H]1[C@@H](O)[C@H](O[C@@H]2C[C@H]3CC[C@@H]4[C@H](CC[C@]5(C)[C@@H](C6=CC(=O)OC6)CC[C@]45O)[C@@]3(C)[C@H](OC(C)=O)C2)O[C@@H](C)[C@H]1O", "inactive"],
  ["COc1ccccc1C1C2=C(COC2=O)OC(C)(C)Oc2cc3c(cc21)OCO3 (stereo unspecified)", "inactive"],
  ["COc1ccc(N2C(=O)C3c4[nH]c5ccccc5c4C4c5ccccc5CC4C3C2=O)cc1 (stereo unspecified)", "inactive"],
  ["COc1cc(-c2[nH]ccc2Cl)oc1C1=C2N=C3C=C2C(C(C)C)C1CCCCCCCC3 (stereo unspecified)", "active"],
  ["NC(=O)N=C(N(Cc1ccccc1)Cc1ccccc1)N(Cc1ccccc1)Cc1ccccc1", "inactive"],
  ["Cc1cc(C)c2c(=N)c3ccccc3n(CCCCCCO)c2n1", "inactive"],
  ["COC(=O)C1CC/C(=N/c2ccc(C)cc2C)N1 (stereo unspecified)", "inactive"]
]}
